- experimentalDetails: qHTS RealTime-Glo MT Cell Viability Assay in HEK293 cells - 32 hour (AID 1224868); note: nearly all actives have a fitted effect of over 50% in size
- runConditions: RealTime-Glo luminescence; series mostly up to 76.8 µM
Records with an inconclusive call do not appear. Calls of active or inactive are those of the source. Calls come from the whole dose curve; as a rule, active = well fitted cell-killing curve with a large enough effect in the repeat runs; inconclusive = weak or mixed curves, or effect the other way; inactive = flat fitted curve, though single readings scatter.
Hi! Could you answer with just one of these? active, inactive

Hi team, can someone confirm the assay call for "CCCCCl" ? inactive

Please do the same for "C=CCN1C[C@H](C)N([C@H](c2ccc(C(=O)N(CC)CC)cc2)c2cccc(OC)c2)C[C@H]1C" as well. active

Please do the same for "CCOC(=O)c1cn2nc(OP(=S)(OCC)OCC)cc2nc1C" as well. active

Please do the same for "N#CC(C#N)=Cc1ccc(O)c(O)c1" as well. inactive

Please do the same for "O=C(O)C(F)(F)C(F)(F)C(F)(F)C(F)(F)C(F)(F)F" as well. inactive

Please do the same for FC(F)OC(F)(F)C(F)Cl (configuration not stated) as well. inactive

Please do the same for "COC(=O)Cc1ccccc1" as well. inactive

* * *

- targetEntity: Glucocorticoid receptor (Homo sapiens) (UniProt P04150)
- Sequence (P04150 whole entry, looked up): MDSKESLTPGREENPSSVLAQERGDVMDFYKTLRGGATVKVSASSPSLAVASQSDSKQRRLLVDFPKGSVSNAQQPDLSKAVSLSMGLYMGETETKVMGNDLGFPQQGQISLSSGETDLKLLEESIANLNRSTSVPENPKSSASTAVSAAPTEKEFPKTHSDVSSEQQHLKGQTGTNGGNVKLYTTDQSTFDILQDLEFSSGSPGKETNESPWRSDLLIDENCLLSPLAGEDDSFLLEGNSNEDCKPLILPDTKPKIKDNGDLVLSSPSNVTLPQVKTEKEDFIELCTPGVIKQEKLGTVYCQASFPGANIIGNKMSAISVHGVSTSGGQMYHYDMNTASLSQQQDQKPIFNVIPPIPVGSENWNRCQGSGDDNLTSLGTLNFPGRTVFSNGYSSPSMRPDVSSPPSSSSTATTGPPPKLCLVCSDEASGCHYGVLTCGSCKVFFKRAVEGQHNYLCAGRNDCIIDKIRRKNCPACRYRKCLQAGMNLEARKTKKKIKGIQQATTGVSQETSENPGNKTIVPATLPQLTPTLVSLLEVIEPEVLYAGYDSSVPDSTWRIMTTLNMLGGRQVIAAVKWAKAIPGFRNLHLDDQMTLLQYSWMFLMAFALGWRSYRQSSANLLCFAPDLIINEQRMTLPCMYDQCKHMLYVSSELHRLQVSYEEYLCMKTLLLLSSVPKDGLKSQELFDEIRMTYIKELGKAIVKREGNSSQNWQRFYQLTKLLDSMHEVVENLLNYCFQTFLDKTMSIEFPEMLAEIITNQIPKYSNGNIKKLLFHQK
- experimentalDetails: qHTS assay to identify small molecule agonists of the glucocorticoid receptor (GR) signaling pathway (AID 720691)
- runConditions: GR-bla HeLa, beta-lactamase reporter ratio, 18 h; series mostly up to 62.4 µM
Records with an inconclusive call do not appear. Active and inactive are the calls of the source. The call rests on the fitted dose curve; in most records, active means well fitted activation curve with a large enough effect in the signal ratio in the repeat runs (not every such curve was filed as active); inconclusive means weak or mixed curves, or effect the other way; inactive means no such curve, though single readings can be large or run the other way; the % refers to the signal ratio.
metric: Potency

Reference set, count: 5
O=C(Cl)OCCOCCOC(=O)Cl : inactive
COc1ccccc1N1CCNCC1 : inactive
OCCCl : inactive
NC(=S)c1c(Cl)cccc1Cl : inactive
O=C(N/N=C/c1ccc([N+](=O)[O-])o1)c1cc([N+](=O)[O-])cc([N+](=O)[O-])c1O : inactive

Query for Glucocorticoid receptor (Homo sapiens) (UniProt P04150): what Potency does the record show for "CCC1(CC)C(=O)NC(=O)NC1=O" ? inactive

Please do the same for "CN(C)N" as well. inactive

* * *

- experimentalDetails: qHTS assay to identify small molecule agonists of the TGF-beta/Smad signaling pathway - cell viability counter screen (AID 1346829); note: top concentration of the series differs between compounds; nearly all actives have a fitted effect of over 45% in size
- runConditions: SBE-bla HEK293T viability, CellTiter-Glo luminescence, 5 h; series mostly up to 76.8 µM
Inconclusive results are not listed. Active and inactive are the calls of the source. Calls follow the shape of the dose curve; as a rule, active = well fitted cell-killing curve with a large enough effect in the repeat runs; inconclusive = weak or mixed curves, or effect the other way; inactive = flat fitted curve, though single readings scatter.
metric: activity change, negative = cytotoxicity

Reference set, count: 5
O=C1NC(=O)C(=O)C(=O)N1 : inactive
Nc1cccc2ccccc12 : inactive
N#CC(C#N)=C(C#N)C#N : inactive
O=CC=O : inactive
O=C(O)COc1cc(Cl)c(Cl)cc1Cl : inactive

Quick check: activity change, negative = cytotoxicity of "CNC(=O)Oc1cccc(N=CN(C)C)c1" ? inactive

Please do the same for C[N+]1(CCF)[C@@H]2CC[C@H]1CC(OC(=O)C(O)(c1ccccc1)c1ccccc1)C2 (stereo not given in full) as well. inactive

Please do the same for "NC(=O)CF" as well. inactive

Please do the same for "O=C1c2ccccc2C(=O)N1SC(Cl)(Cl)Cl" as well. inactive

Please do the same for CC(Cc1ccccc1)NCc1ccccc1Cl (stereo not given) as well. inactive

Please do the same for "COC1=CC(=O)O[C@@H](/C=C/c2ccc3c(c2)OCO3)C1" as well. inactive

Please do the same for "O=C(O)c1cc(Cl)ccc1Cl" as well. inactive

Please do the same for "O=C=NC1CCCCC1" as well. inactive

Please do the same for CC(C)(C)NCC(O)c1cc(Cl)c(N)c(C(F)(F)F)c1 (stereo not given) as well. inactive

Please do the same for "CCOC(=O)c1cn2nc(OP(=S)(OCC)OCC)cc2nc1C" as well. inactive

The reported measurements were obtained from PubChem BioAssay (Tox21).
